// reported inhibition per item
Target: Serine protease Rv3671c (Mycobacterium tuberculosis (strain ATCC 25618 / H37Rv)) (UniProt P9WHR9)
Sequence (P9WHR9 whole entry, looked up, the tested form may be a part): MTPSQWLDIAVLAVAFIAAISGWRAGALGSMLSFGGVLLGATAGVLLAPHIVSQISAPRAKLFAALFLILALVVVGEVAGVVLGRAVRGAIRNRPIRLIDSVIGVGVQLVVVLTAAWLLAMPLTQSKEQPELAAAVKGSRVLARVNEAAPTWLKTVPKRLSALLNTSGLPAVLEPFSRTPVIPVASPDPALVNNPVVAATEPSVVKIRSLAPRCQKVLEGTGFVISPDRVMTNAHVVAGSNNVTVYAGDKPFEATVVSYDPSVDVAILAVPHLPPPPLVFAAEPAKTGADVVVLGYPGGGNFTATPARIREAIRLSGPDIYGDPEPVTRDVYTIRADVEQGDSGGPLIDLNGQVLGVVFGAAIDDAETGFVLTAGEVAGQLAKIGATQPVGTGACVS
Experiment: inhibition of M. tuberculosis membrane protease Rv3671c – biochemical, fluorescence polarization, M. tuberculosis H37Rv, primary screen (AID 2606);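 also: extracellular domain of Rv3671c used as enzyme; 0% = enzyme with DMSO and 100% = no enzyme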
Settings: at 5.96 µM; stronger effect = higher value
Screen size: about 320,000 compounds; about 160 (0.05%) were called active. The sample holds actives, similar compounds and a random draw of the others, so the mix is not that of the screen.
readoutKind: inhibition (%)

| compound | readoutKind | assayValue |
| --- | --- | --- |
| O=C(Nc1ccc(Br)cc1)c1cc(S(=O)(=O)Nc2ccccn2)ccc1Cl | inhibition | -7.4 |
| Cc1ccc(OCC(=O)c2cc(C)n(Cc3ccco3)c2C)c([N+](=O)[O-])n1 | inhibition | -2.09 |
| COCCN(C(=O)CSCc1ccc(C)cc1)c1c(N)n(CC(C)C)c(=O)[nH]c1=O | inhibition | 8.34 |
| CCCCNC(=O)C1(c2ccc(OC)cc2)CCOCC1 | inhibition | 1.73 |
| O=C(COC(=O)c1cc(=O)[nH]c2ccccc12)Nc1nc(-c2cccc(Br)c2)cs1 | inhibition | -76 |
| Cc1ccccc1CSc1nnc(CCCCCNC(=O)OC(C)(C)C)o1 | inhibition | -2.88 |
| CCN(CC)c1ccc(C2C3CCCCC3(O)CCN2CC(=O)Nc2ccccc2)cc1 (configuration not stated) | inhibition | 5.48 |
| CS(=O)(=O)c1ccccc1C(=O)Nc1ccc2sccc2c1 | inhibition | -4.05 |
| Cn1nnnc1SCC(=O)NNC(=O)c1ccc(Br)cc1 | inhibition | -1.13 |
| C/C(=N/NC(=O)CN1CCN(S(=O)(=O)c2ccc(Br)cc2)CC1)c1ccncc1 | inhibition | -1.08 |
| CCOc1ccccc1NC(=O)C1CCCN(S(=O)(=O)c2ccccc2)C1 (configuration not stated) | inhibition | -17.1 |
| CCCN(CCC)S(=O)(=O)c1ccc(C(=O)NNC(=O)c2cc(OC)c(OC)c(OC)c2)cc1 | inhibition | 2.22 |
| CNC(=O)/C(C#N)=C/c1c(F)cccc1Cl | inhibition | -0.68 |
| C/C(=N\NC(=O)NC1CCCCC1)c1ccc(OC(F)F)cc1OC(F)F | inhibition | -2.17 |
| CS(=O)(=O)c1ccc(Cl)c(NC(=O)COC(=O)c2ncc(Cl)c(Cl)c2Cl)c1 | inhibition | 0.74 |
| O=C(NCc1ccccc1)[C@@H]1CSC2c3ccccc3C(=O)N21 (some centres not stated) | inhibition | 5.62 |
| O=C(COc1ccccc1Cl)N1CCCCCCC1 | inhibition | -10.1 |
| Cc1ccn2c(=O)c(NC(=O)c3cccc4ccccc34)c(C)nc2c1 | inhibition | -5.92 |
| CC(C(=O)N1CCN(c2ccccc2F)CC1)c1ccc([N+](=O)[O-])cc1 (configuration not stated) | inhibition | 7.31 |
| COC(=O)COc1cccc2c(=O)n(CC(=O)NCc3ccccc3)ccc12 | inhibition | -8.57 |
| C=C1C2C[C@H](O)C(C)(C)[C@@]2(O)[C@H](O)C[C@]23C[C@@](C)(O)[C@H](CC[C@H]12)[C@H]3O (some centres not stated) | inhibition | 8.16 |
| OC(c1ccccc1)c1nccn1Cc1ccccc1 (configuration not stated) | inhibition | 0.91 |

This collection of values is drawn from PubChem BioAssay AID2606.
